experimental_readout: logP

INSERT INTO measurements (compound, experimental_readout, result) VALUES
  ('CCCCCCCCOC(=O)C(C)c1ccc2cc(OC)ccc2c1 (stereo unspecified)', 'logP', 7.66),
  ('COc1ccc2cc(C(C)C(=O)OCCCCCCO)ccc2c1 (stereo unspecified)', 'logP', 4.74),
  ('COc1ccc2cc(C(C)C(=O)OCCCO)ccc2c1 (stereo unspecified)', 'logP', 3.73),
  ('CCC#CCCOC(=O)C(C)c1ccc2cc(OC)ccc2c1 (stereo unspecified)', 'logP', 5.91),
  ('CCCCCCCOC(=O)C(C)c1ccc2cc(OC)ccc2c1 (stereo unspecified)', 'logP', 7.21),
  ('COc1ccc2cc(C(C)C(=O)OC3CCCCC3=O)ccc2c1 (stereo unspecified)', 'logP', 4.96);

----------
So basically, if logP comes in under 5 it's T, and if it's 5 or more it's F.

INSERT INTO measurements (compound, label_value) VALUES
  ('COC(=O)C(C)c1ccc2cc(OC)ccc2c1 (stereo not drawn)', 'T'),
  ('CCCCCOC(=O)C(C)c1ccc2cc(OC)ccc2c1 (stereo not drawn)', 'F'),
  ('CC=CC=CCOC(=O)C(C)c1ccc2cc(OC)ccc2c1 (stereo not drawn)', 'F'),
  ('COc1ccc2cc(C(C)C(=O)OCC(C)O)ccc2c1 (stereo not drawn)', 'T'),
  ('COc1ccc2cc(C(C)C(=O)OC3CCCCC3O)ccc2c1 (stereo not drawn)', 'T'),
  ('CCCCCCOC(=O)C(C)c1ccc2cc(OC)ccc2c1 (stereo not drawn)', 'F'),
  ('COc1ccc2cc(C(C)C(=O)OCC(C)=O)ccc2c1 (stereo not drawn)', 'T'),
  ('COc1ccc2cc(C(C)C(=O)Oc3ccccc3)ccc2c1 (stereo not drawn)', 'F'),
  ('CCCOC(=O)C(C)c1ccc2cc(OC)ccc2c1 (stereo not drawn)', 'F'),
  ('COc1ccc2cc(C(C)C(=O)OC3CCCCC3)ccc2c1 (stereo not drawn)', 'F'),
  ('CCC=CCCOC(=O)C(C)c1ccc2cc(OC)ccc2c1 (stereo not drawn)', 'F'),
  ('COc1ccc2cc(C(C)C(=O)OCCO)ccc2c1 (stereo not drawn)', 'T'),
  ('COc1ccc2cc(C(C)C(=O)OC3COC4C(O)COC34)ccc2c1 (stereo not drawn)', 'T'),
  ('CCCCOC(=O)C(C)c1ccc2cc(OC)ccc2c1 (stereo not drawn)', 'F'),
  ('CCOC(=O)C(C)c1ccc2cc(OC)ccc2c1 (stereo not drawn)', 'T'),
  ('COc1ccc2cc(C(C)C(=O)OCCOCCO)ccc2c1 (stereo not drawn)', 'T'),
  ('COc1ccc2cc(C(C)C(=O)OCC=C(C)CCC=C(C)C)ccc2c1 (stereo not drawn)', 'F');
